- STUDY_TARGET: human nerve growth factor (beta-NGF) (human, UniProt P01138 122-241)
- Sequence (P01138 122-241): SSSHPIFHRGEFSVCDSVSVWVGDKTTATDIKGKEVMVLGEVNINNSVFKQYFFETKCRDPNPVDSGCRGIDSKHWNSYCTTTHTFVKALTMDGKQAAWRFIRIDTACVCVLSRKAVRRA
- ASSAY_COMMENT: cell-based or functional assay
# IC50, calcium mobilisation assay per record follows
Could you give me the number in nM? Just the number is fine.

Would you please look over these solved cases?
[[record]]
binder = "1016A8 human IgG4 (antibody, V domains shown) VH: EVQLVQSGAELKKPGASVKVSCKASGYPFTSYYMHWVRQAPGQGLEWMGLVDPEDGETIYAEKFQGRVTITADTSTDTAYMELSSLRSEDTAVYSCATSSHNYGTASYYHYGMDVWGRGTMVTVSS VL: QSVLTQPPSASGTPGQRVTISCSGSSSNIGSNTVNWYQRLPGAAPQLLIYNNDQRPSGIPDRFSGSKSGTSGSLVISGLQSEDEADYYCASWDDSLNGRVFGGGTKLTVL"
experimental_value = 65

[[record]]
binder = "1064F8 human IgG4 (antibody, V domains shown) VH: EVQLVQSGAEVKKPGSSVKVSCKASGGTFSSYAYTWVRQAPGQGLEWMGGIVPIFGSTNYAQKFQGRLTITADEFTSTAHMELSSLTSADTAVYYCAGGSDLYCSGGNCYGGGHYYYYMDVWGQGTTVTVSS VL: SSELTQDPAVSVALGQTVRITCTGTSSDVGGYNYVSWYQQHPGKAPKLMIYEGSKRPSGVSNRFSGSKSGNTASLTISGLQAEDEADYYCSSYTTRSTRVFGGGTKLTVL"
experimental_value = 2.5

[[record]]
binder = "1033G9 human IgG4 (antibody, V domains shown) VH: EVQLVQSGAEVRKPGSSVKVSCKASGDTSTLYSINWVRQVPGQGLEWMGAIIPIFGLTDYAQEFQGRLTITADESTNTAYMELTGLRSEDTAIYYCARNLFTTLSYWYFDLWGQGTLVTVSS VL: SSELTQDPAVSVALGQTVRITCQGDRLRSYYASWYQQKPGQAPVLVIYGKNNRPSGIPDRFSGSSSGNTASLTITGAQAEDEADYYCNSRDSSGNHVVFGGGTLLTVL"
experimental_value = 55


// IC50, calcium mobilisation assay lookup, binder = 1021E5 human IgG4 (antibody, V domains shown) VH: EVQLVQSGAEVKKPGSSVKVSCKASGGTFSTYGISWVRQAPGQGLEWIGGIIPIFDTGNSAQSFQGRVTITADESTSTAYMEVSSLRSDDTAVYYCASSSRIYDYAGGDHYYYDMDVWGQGTMVTVSS VL: QAVLTQPSSVSTPPGQKVTISCSGSSSNIGNNYVSWYQQLPGTAPKLLIYDNNKRPSGIPDRFSGSKSGTSATLGITGLQTGDEADYYCGTWDSSLSAWVFGGGTKLTVL , result: 76
